System: Mus musculus
Test: Hepatotoxicity in Kunming mouse assessed as serum AST level at 10 mg/kg, iv (reference value: 197.2 +/- 11.2 U/L)
Format: toxicity, organism-based
Set-up: dose 10 mg/kg, route intravenous
Details: in vivo
One threshold, 200 U/L, splits the recorded Activity values: lower ones are Met, equal or higher ones are Not met.

{"inputSmiles": "CO[C@H]1/C=C\\C=C(/C)C(=O)NC2=CC(=O)C(NCc3ccc(Cl)nc3)=C(C[C@@H](C)C[C@H](OC)[C@H](O)[C@@H](C)/C=C(\\C)[C@@H]1OC(N)=O)C2=O", "class": "Met"}
{"inputSmiles": "CO[C@H]1/C=C\\C=C(/C)C(=O)NC2=CC(=O)C(NCc3ccc(C(F)(F)F)nc3)=C(C[C@@H](C)C[C@H](OC)[C@H](O)[C@@H](C)/C=C(\\C)[C@@H]1OC(N)=O)C2=O", "class": "Met"}
{"inputSmiles": "CO[C@H]1/C=C\\C=C(/C)C(=O)NC2=CC(=O)C(NCc3ccc(N)cc3)=C(C[C@@H](C)C[C@H](OC)[C@H](O)[C@@H](C)/C=C(\\C)[C@@H]1OC(N)=O)C2=O", "class": "Not met"}
{"inputSmiles": "C=CCNC1=C2C[C@@H](C)C[C@H](OC)[C@H](O)[C@@H](C)/C=C(\\C)[C@H](OC(N)=O)[C@@H](OC)/C=C\\C=C(/C)C(=O)NC(=CC1=O)C2=O", "class": "Not met"}
{"inputSmiles": "COC1=C2C[C@@H](C)C[C@H](OC)[C@H](O)[C@@H](C)/C=C(\\C)[C@H](OC(N)=O)[C@@H](OC)/C=C\\C=C(/C)C(=O)NC(=CC1=O)C2=O", "class": "Not met"}

----------
The following molecules are shown together with reported Activity values.
Test system: Mus musculus
Assay: Hepatotoxicity in Kunming mouse assessed as serum ALT level at 10 mg/kg, iv (reference value: 60.7 +/- 6.9 U/L)
Format: toxicity, organism-based
Design: dose 10 mg/kg, route intravenous
Conditions: in vivo

{"inputSmiles": "CO[C@H]1/C=C\\C=C(/C)C(=O)NC2=CC(=O)C(NCc3ccc(N)cc3)=C(C[C@@H](C)C[C@H](OC)[C@H](O)[C@@H](C)/C=C(\\C)[C@@H]1OC(N)=O)C2=O", "Activity [U/L]": 74.9}
{"inputSmiles": "CO[C@H]1/C=C\\C=C(/C)C(=O)NC2=CC(=O)C(NCc3ccc(Cl)nc3)=C(C[C@@H](C)C[C@H](OC)[C@H](O)[C@@H](C)/C=C(\\C)[C@@H]1OC(N)=O)C2=O", "Activity [U/L]": 79.4}
{"inputSmiles": "C=CCNC1=C2C[C@@H](C)C[C@H](OC)[C@H](O)[C@@H](C)/C=C(\\C)[C@H](OC(N)=O)[C@@H](OC)/C=C\\C=C(/C)C(=O)NC(=CC1=O)C2=O", "Activity [U/L]": 66.6}
{"inputSmiles": "CO[C@H]1/C=C\\C=C(/C)C(=O)NC2=CC(=O)C(NCc3ccc(C(F)(F)F)nc3)=C(C[C@@H](C)C[C@H](OC)[C@H](O)[C@@H](C)/C=C(\\C)[C@@H]1OC(N)=O)C2=O", "Activity [U/L]": 61}
{"inputSmiles": "COC1=C2C[C@@H](C)C[C@H](OC)[C@H](O)[C@@H](C)/C=C(\\C)[C@H](OC(N)=O)[C@@H](OC)/C=C\\C=C(/C)C(=O)NC(=CC1=O)C2=O", "Activity [U/L]": 273}
